Cited source: ChEMBL document CHEMBL5506068

# System: Mus musculus
# procedureDetails: Antinociception activity in male Swiss Webster mouse model assessed as increase in maximum possible effect at 10 mg/kg, sc measured after 20 mins by warm-water tail immersion assay relative to control
# Assay type: functional
attributeMeasured: MPE

CN(C(=O)/C=C/c1ccco1)[C@H]1CC[C@@]2(O)[C@H]3Cc4ccc(O)c5c4[C@@]2(CCN3CC2CC2)[C@H]1O5.Cl | 80%
Cl.O=C(CCc1ccco1)N[C@@H]1CC[C@@]2(O)[C@H]3Cc4ccc(O)c5c4[C@@]2(CCN3CC2CC2)[C@H]1O5 | <=40%
CN(C(=O)CCc1ccoc1)[C@@H]1CC[C@@]2(O)[C@H]3Cc4ccc(O)c5c4[C@@]2(CCN3CC2CC2)[C@H]1O5.Cl | 100%
Cl.O=C(/C=C/c1ccco1)N[C@H]1CC[C@@]2(O)[C@H]3Cc4cccc5c4[C@@]2(CCN3CC2CC2)[C@H]1O5 | <=40%

// moving on: another record for MPE
Q) Consider the compound Cl.O=C(/C=C/c1ccco1)N[C@@H]1CC[C@@]2(O)[C@H]3Cc4cccc5c4[C@@]2(CCN3CC2CC2)[C@H]1O5 and give its measured MPE.
A) <=40%

====

# system: Kappa-type opioid receptor (Mus musculus, UniProt P33534)
# Sequence (P33534 whole entry): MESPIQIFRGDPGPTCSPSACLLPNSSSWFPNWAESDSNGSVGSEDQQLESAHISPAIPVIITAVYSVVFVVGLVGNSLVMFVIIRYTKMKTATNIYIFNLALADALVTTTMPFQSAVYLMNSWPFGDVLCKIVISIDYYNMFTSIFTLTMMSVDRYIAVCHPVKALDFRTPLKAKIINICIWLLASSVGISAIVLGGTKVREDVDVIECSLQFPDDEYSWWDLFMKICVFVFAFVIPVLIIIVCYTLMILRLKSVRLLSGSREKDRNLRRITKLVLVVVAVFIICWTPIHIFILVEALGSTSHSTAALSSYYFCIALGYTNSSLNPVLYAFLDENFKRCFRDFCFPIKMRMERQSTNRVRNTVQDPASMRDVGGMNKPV
Kindly supply the reported Kd values for the records listed here.
Write it as a number; the unit nM goes unstated.

Q) Hello, I am looking for reported Kd with Kappa-type opioid receptor (Mus musculus, UniProt P33534) for CN(C(=O)CCc1ccco1)[C@@H]1CC[C@@]2(O)[C@H]3Cc4cccc5c4[C@@]2(CCN3CC2CC2)[C@H]1O5.Cl . Could you help?
A) 50.4

Q) Same lookup for CN(C(=O)CCc1ccco1)[C@H]1CC[C@@]2(O)[C@H]3Cc4cccc5c4[C@@]2(CCN3CC2CC2)[C@H]1O5.Cl , please.
A) 1

Q) Continue with CN(C(=O)/C=C/c1ccco1)[C@H]1CC[C@@]2(O)[C@H]3Cc4cccc5c4[C@@]2(CCN3CC2CC2)[C@H]1O5.Cl
A) 0.62

Q) CN(C(=O)CCc1ccco1)[C@@H]1CC[C@@]2(O)[C@H]3Cc4ccc(O)c5c4[C@@]2(CCN3CC2CC2)[C@H]1O5.Cl ?
A) 0.32
